# System: 991263-137-R1-J2-PDC complex spheroid viability;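 note: spheroids exposed to compounds for 7 days before readout; 100% = DMSO vehicle control viability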
# assayInfo: Anticancer human tumor 991263-137-R1-J2-PDC patient-derived colon adenocarcinoma cell line growth inhibition [POLQ]
# conditionSet: second compound 0.316 µM; first compound 1 µM; stronger effect = lower value
Listed next: entries and their corresponding viability, T/C.
endpoint: viability, T/C (%)

[
  {
    "molecule": "O=C(Nc1ccc(O)c(NS(=O)(=O)c2ccc(F)cc2)c1)c1ccc(-c2ccccc2)cc1 + COC1C(OC(N)=O)C(O)C(Oc2ccc3c(O)c(NC(=O)c4ccc(O)c(CC=C(C)C)c4)c(=O)oc3c2C)OC1(C)C",
    "reading": 106
  },
  {
    "molecule": "C#Cc1c(F)ccc2cc(O)cc(-c3ncc4c(N5CC6CCC(C5)N6)nc(OCC56CCCN5CC(F)C6)nc4c3F)c12 (stereo not given) + Nc1ccc(C#CCN(C(=O)Cc2ncc(C(F)(F)F)cc2C(F)(F)F)c2ccc(F)cc2)nn1",
    "reading": 102
  },
  {
    "molecule": "COc1ccc([C@@H](O)c2cc(-c3ncnc4cc(N5CCOCC5)ccc34)c(F)cc2Cl)nn1 + COC1C(OC(N)=O)C(O)C(Oc2ccc3c(O)c(NC(=O)c4ccc(O)c(CC=C(C)C)c4)c(=O)oc3c2C)OC1(C)C",
    "reading": 71
  },
  {
    "molecule": "CC1COCCN1c1cc(C2(O)CC3CCC(C2)O3)c2cnn(-c3ccn[nH]3)c2n1 (stereo not given) + Nc1ccc(C#CCN(C(=O)Cc2ncc(C(F)(F)F)cc2C(F)(F)F)c2ccc(F)cc2)nn1",
    "reading": 63.4
  },
  {
    "molecule": "COc1cc(C2c3cc4c(cc3C(OC3OC5COC(C)OC5C(O)C3O)C3COC(=O)C23)OCO4)cc(OC)c1O (stereo not given) + Cc1cccc(N(C)C(=O)C2C(O)CCN2c2nc(C)cc(C(F)(F)F)c2C#N)c1",
    "reading": 95.8
  },
  {
    "molecule": "Nc1ccn(C2OC(CO)C(O)C2(F)F)c(=O)n1 (stereo not given) + Nc1ccc(C#CCN(C(=O)Cc2ncc(C(F)(F)F)cc2C(F)(F)F)c2ccc(F)cc2)nn1",
    "reading": 64.2
  },
  {
    "molecule": "CCc1cc2c(N3CCc4c(cc(Cn5ccnc5)cc4-c4cn(C)nc4C(F)(F)F)C3=O)ccnc2c(OC)n1 + Cc1cccc(N(C)C(=O)C2C(O)CCN2c2nc(C)cc(C(F)(F)F)c2C#N)c1",
    "reading": 95.7
  },
  {
    "molecule": "CCc1cc2c(N3CCc4c(cc(Cn5ccnc5)cc4-c4cn(C)nc4C(F)(F)F)C3=O)ccnc2c(OC)n1 + Nc1ccc(C#CCN(C(=O)Cc2ncc(C(F)(F)F)cc2C(F)(F)F)c2ccc(F)cc2)nn1",
    "reading": 111
  },
  {
    "molecule": "COc1cc(C2c3cc4c(cc3C(OC3OC5COC(C)OC5C(O)C3O)C3COC(=O)C23)OCO4)cc(OC)c1O (stereo not given) + Nc1ccc(C#CCN(C(=O)Cc2ncc(C(F)(F)F)cc2C(F)(F)F)c2ccc(F)cc2)nn1",
    "reading": 92.4
  },
  {
    "molecule": "CCc1cc2c(N3CCc4c(cc(Cn5ccnc5)cc4-c4cn(C)nc4C(F)(F)F)C3=O)cc(C)nc2c(OC)n1 + COC1C(OC(N)=O)C(O)C(Oc2ccc3c(O)c(NC(=O)c4ccc(O)c(CC=C(C)C)c4)c(=O)oc3c2C)OC1(C)C",
    "reading": 92.2
  }
]
